Target: FGFR4 ectodomain (Homo sapiens, UniProt P22455)
Assay: AVEXIS normalised luminescence
Decide using binding score: a value greater than or equal to 1 is TRUE, a smaller one is FALSE.

{"Binder": "43 (protein, bait human Fc-tagged dimer) LFQEYQCYGSSSNTRVLNELNYDNAGTNLYNELEMNYYGKQENWYSLKKNSRSLGENDDGNNEDNEKLRKPKHKKLKQPADGNPDPNANPNVDPN", "Cat": "TRUE"}
{"Binder": "47 (protein, bait human Fc-tagged dimer) NNIAHKEDDCGASELAIKKLQELKKFELDILKDFIKKDTDHTDMYKRYHCISSDFLKNTKQEDKKEDNYAKKEDKKDIENSANYIINNKNEKISFINKIISFVGMWNYNKYGNNIQESKNKINIYNNNNNKAENELLYNKEDYTNHIPTNENPNSYMQLSAFNLAKKSMFLGGKDNAAQNFEVGNYGSFYMIFGARNTDYPWACSCDTLQLEEYKEKKRSYVLCSNQLDMSIQNSDLFCNPKN", "Cat": "FALSE"}
{"Binder": "15 (protein, bait human Fc-tagged dimer) MAFFSIFIILNFFMLSLTSSLGNGFLHSSITFSNDFCKGMNLHFLISAEEIDSKFFLNKMLLLILGGSSYMRYSKENYFSVSIYDKKLVYKNIKKIENIQGASYYEQLQSAFKKHIKPSARRTNLYESLKEYYEKYIIGNKNIKKSKNIIIIVKKFTSDDLSEYHENLNRYIKEIRSKDVGIYFFSDDSIYSKNIILNIAESGYNMEVQYPIAHFVSESYRANDLFGVKKFCYQLLHGATCKSYNEWSEWSGPCEFERRQRIIPLKITNIESTNFRSHYDPSCRNVFDYSMSIKEDFRVNCKNSIYECRGICDKGYKFKPYAKSNEIVESYEECNDLPPCTRDQRKNGDHTLYADVILNSLLSESSIQQIRDRDDRALIEKDMP", "Cat": "FALSE"}
{"Binder": "54 (protein, bait human Fc-tagged dimer) DQLDMGSVHNNNAVVGNSASHSPSSSSSSPSSSSSSSSSSPSASSSSSSSSPASSSSSPSSTSDDSKNAALDKIDEELQKKKKNEKL", "Cat": "FALSE"}
{"Binder": "57 (protein, bait human Fc-tagged dimer) NDLCSCNLKVRNNWEHFLQVYQNNGNFKMEILEPECTIQKNLPSEEEKEEFIDFDRKELLLHDFVVIKNSQFTDEKTLELYLSKEENNKAYLMLTFYLGDLKLMIGHNSPYEISLILNVATVNKNMANCKNNAYNIVLLKTTDVFNTADLEILEGPIQFSLGKSSGAFRINVANFFLNNAWKAFTKDKISFLIKPEENCYTILENKINKPQLLIEKKTTFYSEWGEWSNCAMDCDHPDNVQIRERECIHPSGDCFKGDLKESRPCIIPLPPCNELFSHKDNS", "Cat": "FALSE"}
{"Binder": "73 (protein, bait human Fc-tagged dimer) NNIKLNDKENINFESYFNKRTNEENVLNKNVAKEMGDTFVAHKAIELNINHHHVNNDKEFNNNNNNKHQPYYHNEHDKKFSESLKAHMDHLKILNNDLKQHIDKKERNEIYENNDLKKYIIKEIQNNKYLNKEKKSSEDIQILEEHSKKLQKEIHEWLESVNNIEEKSNILKNIKSQLLNNIASLNHALSEEIKNINDIKELQKQQNDLFSENWLYFLPSSSDYLLNEKKKNLYDNQDNSMKDDINNNDKYNIFNYLQNVQDKDNQYEVMKQDNNNIHSGSS", "Cat": "TRUE"}
{"Binder": "62 (protein, bait human Fc-tagged dimer) EFKRKQKVEINSLQTNKNNDNIREEKIKGDVESQPDVDGDTCVIFSSSEGNSRNCWCPRGYILCSEEDVLDVQGKLNEIKNKHERSLVTPLWMKRLCDNSNDVGFKSMSVVIDYELAVLCKDGSNKDYADFEIIGASGYITGEEMIEEQKRNPWYVPRKCTVNNFYLCRKVENDNVNCAYTPWSDWSACKNNAQKRYRKVRRSNQNNENFCLWNDKIVPRNIMEQTRSC", "Cat": "TRUE"}
{"Binder": "31 (protein, bait human Fc-tagged dimer) EGYICDFSSEKYNIYFDEQKDDVICYHEIYEGDSIGIIIPRYKEGNENIYIKTNCFNEVSLESSGNNALSIYDIFNDDEITLYDQDSIFYTEYISSILHIKKVKKNTYLHCVFESKDVNGLTTHKGIAKITIKNVKHNENKKLINNDVDNNAALSFKKKLTNKLVIDLLNKIDIIKDDKLNNQYNNDDNKFLVEAKPGDILYLLGVKRKNKKYLYVDQDCPLHFERIGSIYKYIFPIINEKEEIYNCALYVDDDVSTNKKIVGNLKITFVSKNPAINDINIDVLKKYIHSDIEQKLYKLLYGEISNSVNKYAEQNVDINNADISAIQFMNLNSDNCNNNECIEFFNNAACSSYCGKGYRLLNGNNHMYDEQMVVPCYNGECKPEDEIEP", "Cat": "TRUE"}
{"Binder": "22 (protein, bait human Fc-tagged dimer) RGNQISKCVFYDKRNKDLKQVFYVPTNDVNMYKETIRKLLSREISLLEEPLNENSDSHNMANKKNVANFEEIKKNDENNNRKRKEMEEKLKYIEKYRNYAKGVLKNVEFKCENVDDLKSKVKCNLCVYTEIVNNKHIRQGQIIQIFMNECMYGFYYYDNINQYTQNNEYNNKALKDYNSAQKLDDIYFNIAKDISEGNVNGINFFKQQSSKYHPVCYVTE", "Cat": "FALSE"}
{"Binder": "30 (protein, bait human Fc-tagged dimer) QDNKNKVEETHEEQGEMTQEEKDEIYSEFVDYDLNKDGLIDAEEIVVTLKNMKKADFINFFNKVDLDSSGTISIDEYMLFINSN", "Cat": "TRUE"}
